Target: T1, SHROOM4, Q9ULL8
T1 sequence (Q9ULL8 5-102, limits assumed, looked up): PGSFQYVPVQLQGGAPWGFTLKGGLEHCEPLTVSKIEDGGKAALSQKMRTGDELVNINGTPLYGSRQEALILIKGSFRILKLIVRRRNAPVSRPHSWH
Assay: holdup assay
Design: key: below the threshold = too weak to quantify, mostly under pKd 3.1 to 4
Details: plain residues with an end cap or a label only (N-terminal biotin on a linker: ttds)

binder	pKd
RHTTSTETAV [HPV30-E6, P36809]	4.73
RLPKIKETTV [FRMPD4, Q14CM0]	below the threshold
SKPTRRETEV [HPV35-E6, P27228]	below the threshold
RPLPRKVSQL [DOCK4, Q8N1I0]	below the threshold
